Where do the numbers come from? From the supplement of paper PMC8728848.

molecular target: Gal(a1-3)Gal(b1-3)GlcNAc(b1-6)GalNAc; assay: glycan array binding signal (z-score within array); higher = stronger binding; details: glycan notation: IUPAC condensed, linker removed
Many of the other results were omitted from the sample, so the strongest signals are more common in it than they were.
measured-property: glycan array binding signal (z-score)
Answer using only a numeral; do not append any unit.

input: Entry DC-ASGPR S+GEE (Homo sapiens) (protein) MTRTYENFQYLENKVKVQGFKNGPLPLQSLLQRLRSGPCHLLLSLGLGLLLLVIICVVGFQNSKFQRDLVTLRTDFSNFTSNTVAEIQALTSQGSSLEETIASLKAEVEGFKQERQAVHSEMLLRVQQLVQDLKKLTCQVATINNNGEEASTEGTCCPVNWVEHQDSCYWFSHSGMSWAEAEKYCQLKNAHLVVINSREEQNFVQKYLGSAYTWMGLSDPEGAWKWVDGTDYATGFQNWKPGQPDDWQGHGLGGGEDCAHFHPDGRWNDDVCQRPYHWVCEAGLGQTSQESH : reported glycan array binding signal (z-score) = ?
output: 4.91

input: Looking for the measured glycan array binding signal (z-score) of Cohesin-hMARCO (Homo sapiens) (protein) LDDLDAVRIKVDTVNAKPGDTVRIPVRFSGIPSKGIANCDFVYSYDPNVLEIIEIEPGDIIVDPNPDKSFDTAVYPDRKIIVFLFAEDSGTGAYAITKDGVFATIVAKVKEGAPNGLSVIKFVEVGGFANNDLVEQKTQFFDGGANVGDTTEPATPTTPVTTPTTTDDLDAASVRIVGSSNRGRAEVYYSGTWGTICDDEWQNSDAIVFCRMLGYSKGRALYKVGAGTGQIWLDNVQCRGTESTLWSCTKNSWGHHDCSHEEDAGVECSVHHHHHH , can you help?
output: 2.88
